- target.of.assay: human P2X3 receptor (Homo sapiens (Human), UniProt P56373)
- Sequence (P56373 whole entry): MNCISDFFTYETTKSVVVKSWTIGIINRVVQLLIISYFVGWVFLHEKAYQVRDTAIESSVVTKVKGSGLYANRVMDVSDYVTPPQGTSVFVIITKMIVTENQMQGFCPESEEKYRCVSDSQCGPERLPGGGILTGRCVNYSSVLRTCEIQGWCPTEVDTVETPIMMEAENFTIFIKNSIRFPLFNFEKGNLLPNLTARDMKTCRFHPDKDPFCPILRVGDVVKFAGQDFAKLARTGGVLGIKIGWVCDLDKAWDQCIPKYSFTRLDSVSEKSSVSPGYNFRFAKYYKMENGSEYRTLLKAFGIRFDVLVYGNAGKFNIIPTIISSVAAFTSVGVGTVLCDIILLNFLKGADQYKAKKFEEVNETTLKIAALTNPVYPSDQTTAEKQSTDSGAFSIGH
- experimental.protocol: Evaluation of human P2X3 receptor inhibitory activity (Fluo-3 calcium fluorescence, FDSS 3000, ATP stimulation);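 also: stimulus was 50 nM ATP with fluorescence followed for 3 min, and the response per well was peak post-ATP fluorescence divided by the reading at measurement start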
- Assay type: cell-based
- condition: human P2X3 receptor, Test Example 1
Provide the recorded IC50 for the entries that follow.
Number only, in nM; omit the unit.

Prompt line: Which measured IC50 belongs to CCn1c(=O)[nH]/c(=N\c2ccc(Oc3ncccn3)cc2)n(Cc2ccc(Cl)cc2)c1=O , tested on human P2X3 receptor (Homo sapiens (Human), UniProt P56373)?
Response line: 10

Prompt line: Which measured IC50 belongs to COC(=O)[C@H](C)n1c(=O)[nH]/c(=N\c2ccc(Oc3ccon3)cc2)n(Cc2ccc(Cl)cc2)c1=O , tested on human P2X3 receptor (Homo sapiens (Human), UniProt P56373)?
Response line: 7

Prompt line: Could you share what IC50 was measured for COC(=O)[C@@H](C)Cn1c(=O)[nH]/c(=N\c2ccc(OCC(F)F)cc2)n(Cc2ccc(C)cc2)c1=O , tested on human P2X3 receptor (Homo sapiens (Human), UniProt P56373)?
Response line: 31

Prompt line: Tell me reported IC50 for COC(=O)CCn1c(=O)[nH]/c(=N\c2ccc(Oc3cccc(C#N)n3)cc2)n(Cc2ccc(Cl)cc2)c1=O , tested with human P2X3 receptor (Homo sapiens (Human), UniProt P56373).
Response line: 2
